System: human SMAD7 mRNA
Experiment: Antisense inhibition of human SMAD7 mRNA expression in Hep3B cells by 3-10-3 cEt gapmers, 10,000 nM, electroporation (Example 2)
Type: cell-based
Details: SMAD7 mRNA, Hep3B cells, electroporation with 10,000 nM antisense oligonucleotide, approximately 24 hours, primer probe set RTS5062, relative to untreated control cells
Strand notation (5' to 3'): a small letter for the sugar, then the base; units joined by * are phosphorothioate-linked, units joined directly phosphodiester-linked; [ ] holds rarer units or linkages, { } end groups; capitals alone tell only the bases. k = constrained ethyl (cEt); [5mC] = 5-methylcytosine; d = 2'-deoxy (DNA)
Property label: % Inhibition
Report the figure along with its unit, number first.

- Substance: "829851 (antisense k[5mC]*kT*kT*dG*dT*dT*dG*dT*d[5mC]*d[5mC]*dG*dA*dA*kT*kT*kG) [compound 829851]"
  Test target: "human SMAD7 mRNA"
  % Inhibition: "31%"
- Substance: "829850 (antisense kT*kT*kG*dT*dT*dG*dT*d[5mC]*d[5mC]*dG*dA*dA*dT*kT*kG*kA) [compound 829850]"
  Test target: "human SMAD7 mRNA"
  % Inhibition: "36%"
- Substance: "829984 (kA*kG*kG*d[5mC]*dG*dG*dT*dG*dA*dT*dT*dG*d[5mC]*k[5mC]*kT*kT; antisense) [compound 829984]"
  Test target: "human SMAD7 mRNA"
  % Inhibition: "0%"

Record % Inhibition per entry; entries follow.
1. 829872 (antisense kT*kG*kT*d[5mC]*d[5mC]*dA*dG*dT*dG*dT*dG*dG*d[5mC]*kG*kG*kA) [compound 829872]
2. 829960 (kA*kT*kT*dA*dT*dT*dA*dA*dT*dG*dG*dT*d[5mC]*kT*kG*k[5mC]; antisense) [compound 829960]
3. 829802 (kT*kT*k[5mC]*dG*d[5mC]*dA*dG*dA*dG*dT*d[5mC]*dG*dG*k[5mC]*kT*kA; antisense) [compound 829802]

Response line:
1. 50%
2. 17%
3. 28%

---

System: human SMAD7 mRNA
Experiment: Antisense inhibition of human SMAD7 mRNA expression in Hep3B cells by 5-10-5 MOE gapmers, single concentration, electroporation, RT-PCR (Example 1, Study 1 and 2)
Format: cell-based
Details: Study 2, electroporation with 15,000 nM antisense oligonucleotide, 5-10-5 MOE gapmers targeting SEQ ID NO: 1 and 2
Strand notation (5' to 3'): a small letter for the sugar, then the base; units joined by * are phosphorothioate-linked, units joined directly phosphodiester-linked; [ ] holds rarer units or linkages, { } end groups; capitals alone tell only the bases. e = 2'-O-(2-methoxyethyl) (MOE); [5mC] = 5-methylcytosine; d = 2'-deoxy (DNA)
Parameter threshold = 50%. Response is criterion met when % Inhibition meets or exceeds it, else criterion not met.

- Substance: "771899 (antisense e[5mC]*e[5mC]*eT*eG*eA*dT*dT*dG*dT*d[5mC]*dT*d[5mC]*d[5mC]*dA*d[5mC]*eA*eT*e[5mC]*e[5mC]*e[5mC]) [compound 771899]"
  Category: "criterion not met"
- Substance: "771461 (antisense eG*eT*eA*eG*eA*dG*d[5mC]*d[5mC]*dT*d[5mC]*d[5mC]*d[5mC]*d[5mC]*dA*d[5mC]*eT*e[5mC]*eT*e[5mC]*eG) [compound 771461]"
  Category: "criterion not met"
- Substance: "771739 (antisense eT*eT*eT*eG*eA*dA*dA*dA*d[5mC]*d[5mC]*d[5mC]*dA*dA*d[5mC]*d[5mC]*e[5mC]*eT*eG*eG*eG) [compound 771739]"
  Category: "criterion not met"
- Substance: "771731 (antisense eA*eA*eA*eA*e[5mC]*dT*dT*dT*dG*dT*dG*d[5mC]*d[5mC]*dT*dG*eT*eT*eT*e[5mC]*eA) [compound 771731]"
  Category: "criterion met"

Okay, now this substance:
Prompt line: Decide: % Inhibition of 771799 (antisense e[5mC]*eT*eT*e[5mC]*e[5mC]*dA*dA*d[5mC]*dA*d[5mC]*dA*dT*dG*d[5mC]*dT*e[5mC]*eT*eG*e[5mC]*eA) [compound 771799] >= 50%?
Response line: criterion met

---

Tested on: human SMAD7 mRNA
Assay: Dose-dependent inhibition of human SMAD7 mRNA expression in Hep3B cells (Example 3, Study 1 and 2)
Format: cell-based
Settings: 20000.0 nM, electroporation, approximately 16 hours, Study 1
Strand notation (5' to 3'): a small letter for the sugar, then the base; units joined by * are phosphorothioate-linked, units joined directly phosphodiester-linked; [ ] holds rarer units or linkages, { } end groups; capitals alone tell only the bases. e = 2'-O-(2-methoxyethyl) (MOE); [5mC] = 5-methylcytosine; d = 2'-deoxy (DNA)
Property label: % inhibition of SMAD7 mRNA expression (%)
Numbers only, in %.

Recorded results for 2 substances are shown here.
- Substance: "771773 (antisense eT*e[5mC]*eT*eT*eT*dT*d[5mC]*dG*d[5mC]*dA*dT*d[5mC]*d[5mC]*dT*d[5mC]*eA*eG*eG*eA*eA) [compound 771773]"
  Test target: "human SMAD7 mRNA"
  % inhibition of SMAD7 mRNA expression / %: 42
- Substance: "771704 (antisense e[5mC]*eA*eG*eG*eA*dG*dG*dG*dT*dA*dT*dG*d[5mC]*dA*d[5mC]*eA*e[5mC]*eT*e[5mC]*eT) [compound 771704]"
  Test target: "human SMAD7 mRNA"
  % inhibition of SMAD7 mRNA expression / %: 54

--- query ---
substance 771777 (antisense e[5mC]*e[5mC]*e[5mC]*eT*e[5mC]*dA*dG*dT*d[5mC]*dT*d[5mC]*dA*dG*dA*dT*eA*eA*e[5mC]*eA*eG) [compound 771777] , % inhibition of SMAD7 mRNA expression observed: 50

---

System: human SMAD7 mRNA
Test: Antisense inhibition of human SMAD7 mRNA expression in Hep3B cells by 3-10-3 cEt gapmers, 10,000 nM, electroporation (Example 2)
Format: cell-based
Conditions: SMAD7 mRNA, Hep3B cells, electroporation with 10,000 nM antisense oligonucleotide, approximately 24 hours, primer probe set RTS5062, relative to untreated control cells
Strand notation (5' to 3'): a small letter for the sugar, then the base; units joined by * are phosphorothioate-linked, units joined directly phosphodiester-linked; [ ] holds rarer units or linkages, { } end groups; capitals alone tell only the bases. k = constrained ethyl (cEt); [5mC] = 5-methylcytosine; d = 2'-deoxy (DNA)
For each entry below, report its % Inhibition value.
Answers are plain numbers, in %.

Recorded results for 2 substances are shown here.
- Substance: "829996 (kT*kT*kT*dG*dT*d[5mC]*dT*dT*dA*dG*d[5mC]*dT*dG*kT*kG*kG; antisense) [compound 829996]"
  % Inhibition [%]: 54
- Substance: "829810 (kA*kT*k[5mC]*dG*dG*dG*dT*dA*dT*d[5mC]*dT*dG*dG*kA*kG*kT; antisense) [compound 829810]"
  % Inhibition [%]: 29

Record % Inhibition per entry; entries follow.
1. 829909 (antisense k[5mC]*kG*kG*d[5mC]*dT*dA*d[5mC]*d[5mC]*dG*dG*d[5mC]*dT*dG*kT*kT*kG) [compound 829909]
2. 829801 (kA*kG*kT*d[5mC]*dG*dG*d[5mC]*dT*dA*dA*dG*dG*dT*kG*kA*kT; antisense) [compound 829801]
3. 829907 (antisense kA*k[5mC]*k[5mC]*dG*dG*d[5mC]*dT*dG*dT*dT*dG*dA*dA*kG*kA*kT) [compound 829907]
4. 829915 (antisense kG*kG*kT*dA*d[5mC]*d[5mC]*dT*dT*dG*dG*dG*dT*dT*kA*kT*kG) [compound 829915]
5. 829886 (antisense kG*kT*kG*dG*dT*d[5mC]*dA*dT*dT*dG*dG*dG*d[5mC]*k[5mC]*kG*k[5mC]) [compound 829886]
6. 829917 (antisense kA*kG*kT*dG*dT*dA*dT*dG*dA*dG*dT*dT*dG*kT*kA*kG) [compound 829917]

Response line:
1: 34; 2: 8; 3: 23; 4: 22; 5: 6; 6: 45

Record % Inhibition per entry; entries follow.
1. 830000 (kA*k[5mC]*kT*dG*dT*dT*dT*dG*dT*d[5mC]*dT*dT*dA*kG*k[5mC]*kT; antisense) [compound 830000]
2. 829866 (antisense kG*kT*kG*dG*d[5mC]*dG*dG*dA*d[5mC]*dT*dT*dG*dA*kT*kG*kA) [compound 829866]
3. 829966 (kT*kT*k[5mC]*d[5mC]*d[5mC]*dA*dG*dG*dA*dG*dG*dG*dT*kA*kT*kG; antisense) [compound 829966]

Response line:
[51, 10, 0]
